Molecular target: SARS2 coronavirus 3CL protease (Severe acute respiratory syndrome coronavirus 2)
Test: biochemical
Settings: 5 nM enzyme, 30 min pre-incubation with compound, 15 μM peptide substrate, 4 h at room temperature; read-out: FRET Potency (nM); IC50 values in the SARS2 3CLPro FRET assay
Binary call on IC50 with cut-off 7 nM: strictly below means Met, and equality or higher means Not met.

SMILES CODE | GROUP LABEL
C[C@@H]1C[C@@H](C[C@H](NC(=O)c2cc(Cl)c(F)cc2NC(=O)c2ccnc(C(F)(F)F)c2)C(=O)C(=O)NC2CC2)C(=O)N1 | Met
CNC(=O)C(=O)[C@H](C[C@@H]1C[C@@H](C)NC1=O)NC(=O)c1cc(Cl)ccc1NC(=O)C1CC(F)(F)C1 | Not met
CNC(=O)C(=O)[C@H](C[C@@H]1C[C@@H](C)NC1=O)NC(=O)c1cc(Cl)ccc1NC(=O)C1(C(F)(F)F)CC1 | Not met
C[C@@H]1C[C@@H](C[C@H](NC(=O)c2cc(Cl)ccc2NC(=O)[C@H]2CN(C)C(=O)O2)C(=O)C(=O)NC2CC2)C(=O)N1 | Met
C[C@@H]1C[C@@H](C[C@H](NC(=O)c2cc(Cl)ccc2NC(=O)c2ccnc(C(F)(F)F)c2)C(=O)C(=O)NC2CC2)C(=O)N1 | Met
C[C@@H]1C[C@@H](C[C@H](NC(=O)c2cc(Cl)ccc2NC(=O)OC2CC2)C(=O)C(=O)NC2CC2)C(=O)N1 | Not met
CNC(=O)C(=O)[C@H](C[C@@H]1C[C@@H](C)NC1=O)NC(=O)c1cc(C(F)F)ccc1NC(=O)c1ccnc(C(F)(F)F)c1 | Met
CNC(=O)C(=O)[C@H](C[C@@H]1C[C@@H](C)NC1=O)NC(=O)c1cc(Cl)ccc1NC(=O)OC1CC1 | Met
C[C@@H]1C[C@@H](C[C@H](NC(=O)c2cc(Cl)ccc2NC(=O)N(C)C)C(=O)C(=O)NC2CC2)C(=O)N1 | Not met
CNC(=O)C(=O)[C@H](C[C@@H]1C[C@@H](C)NC1=O)NC(=O)c1cc(Cl)cnc1NC(=O)c1ccc(F)cc1 | Not met

* * *

Biological target: SARS2 coronavirus 3CL protease (Severe acute respiratory syndrome coronavirus 2)
Experiment: biochemical
Details: 5 nM enzyme, 30 min pre-incubation with compound, 15 μM peptide substrate, 4 h at room temperature; read-out: FRET Potency (nM); IC50 values in the SARS2 3CLPro FRET assay
Would you mind classing the entries by IC50? Ranges: lowest = under 7 nM, middle = from 7 nM up to 10 nM, highest = 10 nM and over

MOLECULE | GROUP LABEL
C[C@@H]1C[C@@H](C[C@H](NC(=O)c2cc(C#N)ccc2NC(=O)C23CC(C(F)(F)F)(C2)C3)C(=O)C(=O)NC2CC2)C(=O)N1 | highest
C[C@@H]1C[C@@H](C[C@H](NC(=O)c2cc(Cl)ccc2NC(=O)CCC(F)(F)F)C(=O)C(=O)NCc2ccccc2)C(=O)N1 | highest
CO[C@H](C)C(=O)Nc1ccc(Cl)cc1C(=O)N[C@@H](C[C@@H]1C[C@@H](C)NC1=O)C(=O)C(=O)NC1CC1 | lowest
CC(OC(=O)Nc1ccc(Cl)cc1C(=O)N[C@@H](C[C@@H]1C[C@@H](C)NC1=O)C(=O)C(=O)NC1CC1)C(F)(F)F (stereo partly shown) [Example 211] | middle
CNC(=O)C(=O)[C@H](C[C@@H]1C[C@@H](C)NC1=O)NC(=O)c1cc(Cl)ccc1NC(=O)C(C)C(F)(F)F (stereo partly shown) [Example 24] | highest
[2H]C([2H])([2H])OC(=O)Nc1ccc(Cl)cc1C(=O)N[C@@H](C[C@@H]1CCNC1=O)C(=O)C(=O)NC | lowest
CNC(=O)C(=O)[C@H](C[C@@H]1C[C@@H](C)NC1=O)NC(=O)c1cc(Cl)ncc1NC(=O)OC | highest
O=C(NC1CC1)C(=O)[C@H](C[C@@H]1CCNC1=O)NC(=O)c1cc(Cl)ccc1NC(=O)c1cncc(C(F)(F)F)c1 | lowest
CNC(=O)C(=O)[C@H](C[C@@H]1C[C@@H](C)NC1=O)NC(=O)c1cc(Cl)ccc1NC(=O)OC | middle
CNC(=O)C(=O)[C@H](C[C@@H]1CCNC1=O)NC(=O)c1cc(Cl)ccc1NC(=O)C1CC1C(F)(F)F (stereo partly shown) [Example 175] | lowest
CC(C)C(=O)Nc1ccc(Cl)cc1C(=O)N[C@@H](C[C@@H]1C[C@@H](C)NC1=O)C(=O)C(=O)NC1CC1 | highest
O=C(NC1CC1)C(=O)[C@H](C[C@@H]1CCNC1=O)NC(=O)c1cc(Cl)ccc1NC(=O)C12CC(F)(C1)C2 [Example 37] | highest
C[C@@H]1C[C@@H](C[C@H](NC(=O)c2cc(Cl)ccc2NC(=O)C2(CC(F)(F)F)CC2)C(=O)C(=O)NC2CC2)C(=O)N1 | middle
